System: E. coli BW25113 ΔtolC growth inhibition, OD615
Protocol description: growth inhibitors of E. coli tolC mutant, dose response, strain BW25113 ΔtolC::kan (AID 617);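 also: growth read after 20 h at 37 °C with compound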
Measured endpoint: IC50

Example compounds with recorded IC50:
> print(dat)
                                   compound  result.value
1  CSc1ncc(Cl)c(C(=O)C(C#N)c2nc3c(C)cc(C)cc3c(=O)[nH]2)n1 (configuration not stated)       3.28 µM
2  COc1ccc(-c2[nH]ncc2-c2ccc3c(c2)OCCO3)c(O)c1       15.9 µM
3  CC1(C)Cc2c(c(N3CCCC3)nc3sc4c(N5CCN(CCO)CC5)ncnc4c23)CO1       18.1 µM
4  CCC(C(=O)Nc1ccccc1OC)n1c(C(=O)OC)cc2ccsc21 (configuration not stated)       10.9 µM

Recall and state the measured IC50 for Cc1cccc(-c2nc(CS(=O)CC(=O)NCCCSC3CCCCC3)c(C)o2)c1 (configuration not stated) .
10.1 µM

Give recorded IC50. CCc1c(O)nc(SCc2ccccc2)n(C(C)CC)c1=O (configuration not stated)
4.28 µM

Please report the measured IC50 for `CCOC(=O)N1CCN(c2nc(-c3ccc(F)cc3)cs2)CC1`
32.4 µM

Tell me measured IC50 for O=C(Nc1ccc2c(c1)CCC2)C1COc2ccccc2O1 (configuration not stated) please.
12.2 µM

Given the compound `CCCCCCN=C(CC)c1c(O)n(CCCC)c(=O)[nH]c1=O` , write its reported IC50.
11.8 µM

Return IC50 (reported value) for this compound: `Cc1cc(/C=C(/C#N)c2cccc(F)c2)c(C)n1-c1cccnc1`
10.9 µM

Hello, please tell me recorded IC50 for this one: `CCSc1oc(-c2ccccc2)nc1S(=O)(=O)c1ccccc1`
11.1 µM

Give reported IC50 value for CC(C)CCOC(=O)c1c(N)n(CC2CCCO2)c2nc3ccccc3nc12 (configuration not stated)
18.3 µM

Read the entry `COc1ccc(NC(=O)c2ccc(Cl)c(S(=O)(=O)N3CCc4ccccc4C3)c2)cn1` and write its reported IC50.
8.1 µM

Give a short answer stating reported IC50 for `CCOc1ccc(OCCSc2nnnn2C2CCCCC2)cc1` .
14.5 µM

Look up and report measured IC50 for this entry: `Cc1n[nH]c(C)c1S(=O)(=O)N(CC(=O)Nc1ccc2c(c1)OCCO2)c1ccc(C(C)C)cc1`
19.3 µM

Name the recorded IC50 of the item COc1ccc(CN(C(=O)CN2C(=O)C(C)Oc3ccccc32)C2CCCC2)c(OC)c1 (configuration not stated) in your answer.
28.1 µM

For the compound `COC(=O)c1ccc(NC(=O)CN2CCN(c3cccc(Cl)c3)CC2)cc1` , report IC50.
21.7 µM

Please indicate IC50 recorded for CSCCOC(=O)C1=C(C)NC(=O)CC1c1ccccc1Cl (configuration not stated)
22.9 µM

Identify IC50 associated with the compound `Cc1cc(N2CCN(c3ccccc3)CC2)nc(-n2nc(C)cc2C)n1`
7.6 µM

Name the recorded IC50 of the compound listed here: `CCCCOC(=O)CSc1nnc(-c2ccc(Cl)cc2Cl)o1`
19.4 µM

Could you please provide reported IC50 for `CCn1c(C(=O)OC)cc2c1ccn2-c1ccc(F)cc1` ? Thanks!
17.2 µM

Fill in IC50 for record `COc1ccc(CNc2nc3c(c(=O)n(Cc4ccc(F)cc4)c(=O)n3C)n2C)cc1`
22.5 µM

###

Measured pIC50, listed per entry for reference.
Tested on: E. coli BW25113 ΔtolC growth inhibition, OD615
Protocol description: growth inhibitors of E. coli tolC mutant, dose response, strain BW25113 ΔtolC::kan (AID 617);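 also: growth read after 20 h at 37 °C with compound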
Scale explanation: pIC50 corresponds to minus log10 of a concentration expressed in moles per litre.

> print(dat)
                                   compound  measured.endpoint  result.value
1  CC(C)C(C(=O)NCc1ccco1)N(C(=O)CNS(=O)(=O)c1ccc(Cl)cc1)C1CCCC1 (stereo unspecified)              pIC50          4.61
2             CCc1cc2c3c(c(=O)oc2cc1O)CCCC3              pIC50          4.48
3   Cn1c(-c2ccccc2)cc2c3no[n+]([O-])c3ccc21              pIC50          5.29
4          O=C(COc1ccccc1)Nc1ccccc1N1CCCCC1              pIC50          4.59

State the measured pIC50 (E. coli BW25113 ΔtolC growth inhibition, OD615) of `CC(C)(C)c1csc(NC(=O)c2ccc(Cl)s2)n1`
4.53

Enter recorded pIC50 with E. coli BW25113 ΔtolC growth inhibition, OD615 for `c1coc(CN(Cc2cccs2)Cc2nnnn2C2CCCCC2)c1` here.
4.71

###

Test system: E. coli BW25113 ΔtolC growth inhibition, OD615
Protocol description: growth inhibitors of E. coli tolC mutant, dose response, strain BW25113 ΔtolC::kan (AID 617);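 also: growth read after 20 h at 37 °C with compound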
Listed next: entries and their corresponding IC50.

Example compounds with recorded IC50:
> print(dat)
                                   compound  result.value
1  CCn1cc(C(=O)OC(C)C(=O)Nc2c(C)n(C)n(-c3ccccc3)c2=O)c(=O)c2ccc(C)nc21 (stereo unspecified)       12.7 µM
2  CCN(CC)c1ccc(-c2nn3c(-c4n[nH]c5c4CCC5)nnc3s2)cc1       20.8 µM
3  CCc1c(C)nc2cc(-c3cc(OC)cc(OC)c3)nn2c1N1CCCC1       25.5 µM
4  O=C1OC(c2ccc(O)cc2)(c2ccc(O)cc2)c2ccccc21       4.01 µM
5  COc1ccccc1-c1nnc(NC(=O)c2ccc(S(=O)(=O)N(C)C)cc2)o1       3.77 µM

# return recorded IC50 for entry `c1ccc2c(c1)oc1c(N3CCN(Cc4ccc5c(c4)OCO5)CC3)ncnc12`
10.9 µM

Using known records, supply IC50 for `C#CCSc1nnc(-c2cccc3ccccc23)o1`
12.2 µM

Supply measured IC50 of `Cc1cc(C)c(C#N)c(SCc2ccc3c(c2)OCO3)n1` in your reply.
24.6 µM

###

System: E. coli BW25113 ΔtolC growth inhibition, OD615
Protocol description: growth inhibitors of E. coli tolC mutant, dose response, strain BW25113 ΔtolC::kan (AID 617);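 also: growth read after 20 h at 37 °C with compound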
molecules and their reported pIC50
Please note pIC50 is a logarithmic value: minus log10 of concentration in mol/L. Answer with that number alone.

Some molecules with known pIC50 results, for comparison:
> print(dat)
                                   molecule  result.value
1  CCCCOc1ccc(S(=O)(=O)n2c(C)nc3ccccc32)cc1          4.94
2  CCOc1cc(/C=C(/C#N)c2ccc(F)cc2)ccc1OCc1ccc(C(=O)O)o1          5.36

Supply measured pIC50 of `CCCc1ccc(Oc2cn[nH]c2-c2ccc(O)cc2O)cc1` in your reply.
6.62

Dear colleague, please send me the reported pIC50 for `O=C(c1noc2c1CCc1ccccc1-2)N1CCc2ccccc2C1` when you can.
5.18

Fill in pIC50 for record CCSCC1COC(c2cccn2Cc2ccc(C)cc2)=N1 (stereo not given)
4.40

###

The following compounds are listed with their measured pIC50 values.
Test system: E. coli BW25113 ΔtolC growth inhibition, OD615
Protocol description: growth inhibitors of E. coli tolC mutant, dose response, strain BW25113 ΔtolC::kan (AID 617);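 also: growth read after 20 h at 37 °C with compound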
Field pIC50 (float): negative decimal logarithm of the concentration in molar.

Observe how each entry below is paired with its result.
> print(dat)
                                   compound  result.value
1  Cc1cc(NC(=O)COC(=O)C(Nc2ccc(C(F)(F)F)cc2Cl)C(C)C)no1 (centres undefined)          5.27
2  CN(C)c1nc(SCCOC(=O)Nc2ccccc2)nc(N(C)C)n1          4.92
3  Clc1ccc(Cl)c(-c2nn3c(COc4ccccc4)nnc3s2)c1          6.11
4        CCOC(=O)c1csc(Nc2nc3ccc(F)cc3s2)n1          5.23
5     COc1ccc(-c2noc(Cc3ccc(Cl)cc3)n2)cc1OC          4.13
6  OC1(c2cccc(C(F)(F)F)c2)CCN(c2ncnc3c2[nH]c2ccc(F)cc23)CC1          5.80

For the compound `N#CC1=C(N)NC(SCc2ccccc2)=C(C#N)C12CCCCC2` , give its measured pIC50 value.
5.67

Output measured pIC50 for this item: `CCOC(=O)c1c(CN2CCOCC2)n(-c2ccccc2)c2ccc(O)cc12`
4.74

###

Tested on: E. coli BW25113 ΔtolC growth inhibition, OD615
Protocol description: growth inhibitors of E. coli tolC mutant, dose response, strain BW25113 ΔtolC::kan (AID 617);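 also: growth read after 20 h at 37 °C with compound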
Listed here are molecules together with their documented pIC50.
// scale note: pIC50 = -log10(conc_M); give the bare number

See these solved cases before continuing.
> print(dat)
                                   molecule  result.value
1    COc1ccccc1-c1cc(C(=O)NCc2ccc(F)cc2)no1          5.01
2  CC(C)(C)c1ccc(-c2nnc(SCCC#N)n2C2CCCC2)cc1          4.80
3  COc1cccc(N2CC(C(=O)Nc3ccc(C(=O)OC(C)C)cc3)CC2=O)c1 (centres undefined)          4.83
4  CCc1cc2cc(C(=O)N3CCN(Cc4ccccc4)CC3)sc2s1          4.99
5  Cc1ccc2cc(C(c3nnnn3C3CCCC3)N(Cc3cccnc3)Cc3ccco3)c(=O)[nH]c2c1 (centres undefined)          4.86

Supply reported pIC50 belonging to this molecule: CCC(C(=O)N1CCN(c2cccc(Cl)c2)CC1)c1ccccc1 (centres undefined)
4.85

Item `CCOC(=O)c1sc2nc(CC(=O)OC)nc(N3CCN(c4ccccn4)CC3)c2c1C` : provide pIC50
4.60

Answer with the recorded pIC50 for the molecule listed here: `Cc1cccc(N=c2oc3cc(O)ccc3cc2C(N)=O)c1`
4.64

For the molecule CC1(C)C(=O)OC(c2cc(Br)ccc2O)C(C)(C)C1=O (centres undefined) , report pIC50.
4.81

Report pIC50, nothing else, for this molecule: `COc1ccc(-c2noc(CCC(=O)N(C)c3cccc(C)c3)n2)cc1`
4.64

Tell me measured pIC50 for O=C1CN(C(=O)c2ccc(Br)o2)C(c2ccccc2)c2cc(Cl)ccc2N1 (centres undefined) please.
4.81

Answer with reported pIC50 of CC1CCCCC1n1c(=S)[nH]c2ccccc2c1=O (centres undefined)
5.23
